Tested on: Amaranthus retroflexus (AMARE)
assayMethodText: Test 1 glasshouse assay, post-emergence herbicidal activity
Type: in vivo
conditionDescription: 312 h, post-emergence (Example 1B Table 1), 62.5 g/ha, after 13 days, read-out: Percentage phytotoxicity AMARE
Procedure: Seeds of a variety of test species are sown in standard soil in pots. […] After 13 days for pre- or post-emergence, the test is evaluated visually, and an assessed percentage phytotoxicity score is given for each herbicidal application on each plant species (where 100%=total damage to plant; 0%=no damage to plant). […]
Below: a set of entries, each annotated with reported pest or weed control at 62.5 g/ha.
Response body: numeric value in %, unit text excluded.

Take a look at these entries with their results.
compound: C#CCC1CC(=O)C(c2c(C)cc(-c3ccc(Cl)cn3)cc2C)C1=O (centres unmarked)
targetUnderTest: Amaranthus retroflexus (AMARE)
pest or weed control at 62.5 g/ha [%]: 70
--
compound: C#CCC1CC(=O)C(c2c(F)cc(-c3ccc(Cl)cc3)cc2OC)C1=O (centres unmarked)
targetUnderTest: Amaranthus retroflexus (AMARE)
pest or weed control at 62.5 g/ha [%]: 50
--
compound: C#CCC1CC(=O)C(c2c(C)cc(-c3ccc(F)cc3)cc2C)C1=O (centres unmarked)
targetUnderTest: Amaranthus retroflexus (AMARE)
pest or weed control at 62.5 g/ha [%]: 30
--
compound: C#CCC1CC(=O)C(c2c(C)cc(-c3ncc(Cl)cc3F)cc2C)C1=O (centres unmarked)
targetUnderTest: Amaranthus retroflexus (AMARE)
pest or weed control at 62.5 g/ha [%]: 60

Could you share which pest or weed control at 62.5 g/ha value was measured for C#CCC1CC(OC(C)=O)=C(c2c(C)cc(-c3ccc(F)cc3)cc2C)C1=O (centres unmarked) ? 20
